- Test system: S. epidermidis NCTC11047
- Type: cell-based
- Condition details: NCTC11047
- Description: Antibacterial activity of fermentation samples or purified samples was determined by Mueller-Hinton Agar diffusion bioassays using M. luteus ATCC 4698 as the indicator strain. Susceptibility testing (minimum inhibitory concentration [MIC]) for all aerobic organisms, with the exception of S. pneumoniae, was performed following the recommendations of CLSI. […]
Observable: MIC S. epidermidis NCTC11047 (µg/mL)

INSERT INTO results (compound, measured_target, observable, value_operator, numeric_readout) VALUES
  ('CC[C@H](C)[C@@H]1NC(=O)[C@@H]2CSC(C)C(NC(=O)[C@@H]3CSC(C)C(NC(=O)[C@H](Cc4ccccc4)NC(=O)C4NC(=O)[C@@H](N)CSC4C)C(=O)N[C@@H](CC(C)C)C(=O)N4CCC[C@H]4C(=O)NCC(=O)NCC(=O)NCC(=O)NCC(=O)N[C@@H](C(C)C)C(=O)N3)C(=O)N[C@@H](CC(C)C)C(=O)NC(C(=O)NCC(=O)N[C@@H](CCC(=O)O)C(=O)N2)C(C)SC=CNC1=O (stereo partly drawn) [S16G]', 'S. epidermidis NCTC11047', 'MIC S. epidermidis NCTC11047', '=', 16),
  ('C=C1NC(=O)C2NC(=O)[C@H](CC(C)C)NC(=O)C(NC(=O)[C@@H]3CSC(C)C(NC(=O)[C@H](Cc4ccccc4)NC(=O)C4NC(=O)[C@@H](N)CSC4C)C(=O)N[C@@H](CC(C)C)C(=O)N4CCC[C@H]4C(=O)N[C@@H](CC(N)=O)C(=O)NCC(=O)NCC(=O)NCC(=O)N[C@@H](C(C)C)C(=O)N3)C(C)SC[C@H](NC(=O)[C@H](CCC(=O)O)NC1=O)C(=O)N[C@@H]([C@@H](C)CC)C(=O)NC=CSC2C (stereo partly drawn)', 'S. epidermidis NCTC11047', 'MIC S. epidermidis NCTC11047', '=', 32),
  ('C=C1NC(=O)C2NC(=O)[C@H](CC(C)C)NC(=O)C(NC(=O)[C@@H]3CSC(C)C(NC(=O)[C@H](Cc4ccccc4)NC(=O)C4NC(=O)[C@@H](N)CSC4C)C(=O)N[C@@H](CC(C)C)C(=O)N4CCC[C@H]4C(=O)NCC(=O)NCC(=O)NCC(=O)N[C@@H](CC(N)=O)C(=O)N[C@@H](C(C)C)C(=O)N3)C(C)SC[C@H](NC(=O)[C@H](CCC(=O)O)NC1=O)C(=O)N[C@@H]([C@@H](C)CC)C(=O)NC=CSC2C (stereo partly drawn) [G10N]', 'S. epidermidis NCTC11047', 'MIC S. epidermidis NCTC11047', '>', 64);
